Values from ChEMBL document CHEMBL4842338

CC50 values, listed per item
Tested on: Huh-7
protocol_notes: Cytotoxicity against human Huh-7 cells assessed as reduction in cell viability by Celltiter-Glo luminescent cell viability assay
Type: cell-based
study_conditions: huh-7
quantity_name: CC50 (µM)

- smi: "CNc1nc(Nc2cccc(F)c2)c2nc[nH]c2n1"
  measured_on: "Huh-7"
  quantity_name: "CC50"
  readout_units: "µM"
  value_reported: 84
- smi: "COc1cc(Nc2nc(NCCOc3ccccc3)nc3[nH]cnc23)cc(OC)c1OC"
  measured_on: "Huh-7"
  quantity_name: "CC50"
  readout_units: "µM"
  value_reported: 7.5
- smi: "FC(F)(F)c1cccc(NNc2nc(NCCOc3ccccc3)nc3[nH]cnc23)c1"
  measured_on: "Huh-7"
  quantity_name: "CC50"
  readout_units: "µM"
  value_reported: 7.5
- smi: "FC(F)(F)c1ccc(/N=N/c2nc(NCCOc3ccccc3)nc3[nH]cnc23)cc1"
  measured_on: "Huh-7"
  quantity_name: "CC50"
  readout_units: "µM"
  value_reported: 8
- smi: "Fc1cccc(NNc2nc(NCCOc3ccccc3)nc3[nH]cnc23)c1"
  measured_on: "Huh-7"
  quantity_name: "CC50"
  readout_units: "µM"
  value_reported: 20
- smi: "FC(F)(F)c1cc(NNc2nc(NCCOc3ccccc3)nc3[nH]cnc23)cc(C(F)(F)F)c1"
  measured_on: "Huh-7"
  quantity_name: "CC50"
  readout_units: "µM"
  value_reported: 5
- smi: "COC(=O)c1cccc(Nc2nc(NCCOc3ccccc3)nc3[nH]cnc23)c1"
  measured_on: "Huh-7"
  quantity_name: "CC50"
  readout_units: "µM"
  value_reported: 100
- smi: "FC(F)(F)c1ccc(NNc2nc(NCCOc3ccccc3)nc3[nH]cnc23)cc1"
  measured_on: "Huh-7"
  quantity_name: "CC50"
  readout_units: "µM"
  value_reported: 8
- smi: "FC(F)(F)c1cccc(Nc2nc(NCCOc3ccccc3)c3nc[nH]c3n2)c1"
  measured_on: "Huh-7"
  quantity_name: "CC50"
  readout_units: "µM"
  value_reported: 6
- smi: "FC(F)(F)c1cc(/N=N/c2nc(NCCOc3ccccc3)nc3[nH]cnc23)cc(C(F)(F)F)c1"
  measured_on: "Huh-7"
  quantity_name: "CC50"
  readout_units: "µM"
  value_reported: 7.5
- smi: "Fc1cc(F)cc(/N=N/c2nc(NCCOc3ccccc3)nc3[nH]cnc23)c1"
  measured_on: "Huh-7"
  quantity_name: "CC50"
  readout_units: "µM"
  value_reported: 12
- smi: "Fc1cccc(Nc2nc(NCCOc3ccccc3)c3nc[nH]c3n2)c1"
  measured_on: "Huh-7"
  quantity_name: "CC50"
  readout_units: "µM"
  value_reported: 8
- smi: "Fc1cccc(/N=N/c2nc(NCCOc3ccccc3)nc3[nH]cnc23)c1"
  measured_on: "Huh-7"
  quantity_name: "CC50"
  readout_units: "µM"
  value_reported: 18.5
- smi: "OCCNc1nc(Nc2cccc(C(F)(F)F)c2)c2nc[nH]c2n1"
  measured_on: "Huh-7"
  quantity_name: "CC50"
  readout_units: "µM"
  value_reported: 50
- smi: "Fc1cc(F)cc(NNc2nc(NCCOc3ccccc3)nc3[nH]cnc23)c1"
  measured_on: "Huh-7"
  quantity_name: "CC50"
  readout_units: "µM"
  value_reported: 8.5
- smi: "OCCNc1nc(Nc2cccc(F)c2)c2nc[nH]c2n1"
  measured_on: "Huh-7"
  quantity_name: "CC50"
  readout_units: "µM"
  value_reported: 136

* * *

protocol_notes: Cytotoxicity against human A549 cells assessed as reduction in cell viability measured after 24 hrs by MTT assay
Type: cell-based
study_conditions: A549 cells
quantity_name: CC50 at 24 h

- smi: "NC(=O)c1ncn([C@@H]2O[C@H](CO)[C@@H](O)[C@H]2O)n1"
  quantity_name: "CC50 at 24 h"
  value_reported: "> 50 µM"

* * *

System: Calu-3
protocol_notes: Cytotoxicity against human Calu-3 cells infected with SARS-COV-2 by celltiter-glo luminescent cell viability assay
Assay type: cell-based
study_conditions: calu-3
CC50 values, listed per item
quantity_name: CC50 (µM)

- smi: "CCC(CC)COC(=O)[C@H](C)N[P@](=O)(OC[C@H]1O[C@@](C#N)(c2ccc3c(N)ncnn23)[C@H](O)[C@@H]1O)Oc1ccccc1"
  measured_on: "Calu-3"
  quantity_name: "CC50"
  value_reported: 97
- smi: "FC(F)(F)c1cccc(Nc2nc(NCCOc3ccccc3)nc3[nH]cnc23)c1"
  measured_on: "Calu-3"
  quantity_name: "CC50"
  value_reported: 120

* * *

measured_on: Fyn (Tyrosine-protein kinase Fyn) (Homo sapiens, UniProt P06241)
Sequence (P06241 whole entry): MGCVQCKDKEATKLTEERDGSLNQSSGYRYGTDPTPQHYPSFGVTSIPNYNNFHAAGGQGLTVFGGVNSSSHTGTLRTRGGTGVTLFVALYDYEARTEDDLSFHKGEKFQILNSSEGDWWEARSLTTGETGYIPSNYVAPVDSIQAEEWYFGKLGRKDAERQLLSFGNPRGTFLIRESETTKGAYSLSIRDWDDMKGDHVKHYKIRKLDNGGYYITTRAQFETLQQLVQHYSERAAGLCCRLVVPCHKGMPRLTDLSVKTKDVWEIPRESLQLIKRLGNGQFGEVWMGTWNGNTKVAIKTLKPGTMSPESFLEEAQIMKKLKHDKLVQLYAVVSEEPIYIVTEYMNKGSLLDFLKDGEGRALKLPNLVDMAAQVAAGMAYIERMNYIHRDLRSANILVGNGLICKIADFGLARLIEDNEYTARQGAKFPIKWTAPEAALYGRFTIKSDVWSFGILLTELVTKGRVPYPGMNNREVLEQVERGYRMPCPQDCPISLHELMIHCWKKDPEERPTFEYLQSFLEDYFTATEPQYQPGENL
protocol_notes: Inhibition of human recombinant N terminal His6 tagged full length Fyn assessed as residual activity at 5 uM using […] as a substrate in the presence of NP-40 incubated for 10 mins by scintillation counting analysis relative to control
study_conditions: probe KVEKIGEGTVGVVYK, read-out: Activity

- smi: "Fc1cccc(Nc2nc(NCCOc3ccccc3)nc3[nH]cnc23)c1"
  activity at 10 min, 5 µM: "> 98%"
- smi: "Fc1cccc(/N=N/c2nc(NCCOc3ccccc3)nc3[nH]cnc23)c1"
  activity at 10 min, 5 µM: "89%"
- smi: "FC(F)(F)c1cccc(Nc2nc(NCCOc3ccccc3)nc3[nH]cnc23)c1"
  activity at 10 min, 5 µM: "> 98%"
- smi: "Fc1cccc(NNc2nc(NCCOc3ccccc3)nc3[nH]cnc23)c1"
  activity at 10 min, 5 µM: "> 98%"

* * *

protocol_notes: Cytotoxicity against MDCK cells assessed as reduction in cell viability measured after 24 hrs by MTT assay
Type: cell-based, Canis lupus familiaris
study_conditions: dog, MDCK cells
quantity_name: CC50 at 24 h

- smi: "NC(=O)c1ncn([C@@H]2O[C@H](CO)[C@@H](O)[C@H]2O)n1"
  value_reported: "> 50 µM"

* * *

protocol_notes: Selectivity index, ratio of CC50 for human Huh-7 cells to IC50 for Dengue virus serotype 2 New Guinea C infected in pre-seeded Huh-7 cells assessed as inhibition of viral replication incubated for 72 hrs by immunodetection based secondary yield reduction assay
Assay type: toxicity, cell-based
study_conditions: read-out: Selectivity Index

- compound: "NC(=O)c1ncn([C@@H]2O[C@H](CO)[C@@H](O)[C@H]2O)n1 [RIBAVIRIN]"
  selectivity ratio at 72 h: 50
- compound: "FC(F)(F)c1cccc(Nc2nc(NCCOc3ccccc3)nc3[nH]cnc23)c1"
  selectivity ratio at 72 h: 77
- compound: "OCCNc1nc(Nc2cccc(C(F)(F)F)c2)c2nc[nH]c2n1"
  selectivity ratio at 72 h: 11

* * *

measured_on: UniProtKB P12931
Sequence (P12931 2-536 limits assumed): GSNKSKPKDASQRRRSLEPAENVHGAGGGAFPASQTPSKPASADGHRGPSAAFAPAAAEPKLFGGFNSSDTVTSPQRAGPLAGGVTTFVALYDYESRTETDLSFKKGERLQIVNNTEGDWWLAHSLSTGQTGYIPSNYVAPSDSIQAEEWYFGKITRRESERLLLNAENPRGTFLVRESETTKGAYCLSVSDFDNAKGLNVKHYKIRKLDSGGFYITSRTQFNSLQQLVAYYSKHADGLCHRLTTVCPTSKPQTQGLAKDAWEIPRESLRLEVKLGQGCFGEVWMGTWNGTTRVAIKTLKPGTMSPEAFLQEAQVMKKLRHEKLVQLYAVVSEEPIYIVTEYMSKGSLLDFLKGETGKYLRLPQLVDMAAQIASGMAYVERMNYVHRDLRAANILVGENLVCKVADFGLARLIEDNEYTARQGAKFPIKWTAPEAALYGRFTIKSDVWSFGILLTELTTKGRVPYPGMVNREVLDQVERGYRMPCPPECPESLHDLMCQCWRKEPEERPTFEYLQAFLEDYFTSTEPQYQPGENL
protocol_notes: Inhibition of human recombinant N terminal His6 tagged full length Src assessed as residual activity at 5 uM using KVEKIGEGTYGVVYK as a substrate in the presence of NP-40 incubated for 10 mins by scintillation counting analysis relative to control
study_conditions: probe KVEKIGEGTYGVVYK, read-out: Activity
quantity_name: activity at 10 min, 5 µM (%)

- smi: "Fc1cccc(Nc2nc(NCCOc3ccccc3)nc3[nH]cnc23)c1"
  quantity_name: "activity at 10 min, 5 µM"
  readout_units: "%"
  relation_symbol: "="
  value_reported: 45
- smi: "FC(F)(F)c1cccc(Nc2nc(NCCOc3ccccc3)nc3[nH]cnc23)c1"
  quantity_name: "activity at 10 min, 5 µM"
  readout_units: "%"
  relation_symbol: "="
  value_reported: 47
- smi: "Fc1cccc(/N=N/c2nc(NCCOc3ccccc3)nc3[nH]cnc23)c1"
  quantity_name: "activity at 10 min, 5 µM"
  readout_units: "%"
  relation_symbol: ">"
  value_reported: 98
- smi: "Fc1cccc(NNc2nc(NCCOc3ccccc3)nc3[nH]cnc23)c1"
  quantity_name: "activity at 10 min, 5 µM"
  readout_units: "%"
  relation_symbol: "="
  value_reported: 84

* * *

protocol_notes: Selectivity index, ratio of CC50 for human Huh-7 cells to IC50 for Zika virus H/PF/2013 infected in pre-seeded Huh-7 cells assessed as inhibition of viral replication incubated for 72 hrs by immunodetection based secondary yield reduction assay
Assay type: toxicity, cell-based
study_conditions: read-out: Selectivity Index
quantity_name: selectivity ratio at 72 h

- smi: "CNc1nc(Nc2cccc(C(=O)O)c2)c2nc[nH]c2n1"
  value_reported: 6
- smi: "COC(=O)c1cccc(Nc2nc(NCCOc3ccccc3)nc3[nH]cnc23)c1"
  value_reported: 12
- smi: "Fc1cccc(/N=N/c2nc(NCCOc3ccccc3)nc3[nH]cnc23)c1"
  value_reported: 7
- smi: "Fc1cccc(Nc2nc(NCCOc3ccccc3)nc3[nH]cnc23)c1"
  value_reported: 68
- smi: "FC(F)(F)c1cccc(Nc2nc(NCCOc3ccccc3)nc3[nH]cnc23)c1"
  value_reported: 182
- smi: "OCCNc1nc(Nc2cccc(F)c2)c2nc[nH]c2n1"
  value_reported: 15
- smi: "Fc1cccc(NNc2nc(NCCOc3ccccc3)nc3[nH]cnc23)c1"
  value_reported: 8
- smi: "NC(=O)c1ncn([C@@H]2O[C@H](CO)[C@@H](O)[C@H]2O)n1"
  value_reported: 45
- smi: "CNc1nc(Nc2cccc(C(=O)OC)c2)c2nc[nH]c2n1"
  value_reported: 25
- smi: "Oc1ccc(Nc2nc(NCCOc3ccccc3)nc3[nH]cnc23)cc1O"
  value_reported: 8
- smi: "OCCNc1nc(Nc2cccc(C(F)(F)F)c2)c2nc[nH]c2n1"
  value_reported: 5
- smi: "CNc1nc(Nc2cccc(F)c2)c2nc[nH]c2n1"
  value_reported: 6
- smi: "CC(C)OC(=O)[C@H](C)N[P@](=O)(OC[C@H]1O[C@@H](n2ccc(=O)[nH]c2=O)[C@](C)(F)[C@@H]1O)Oc1ccccc1"
  value_reported: 62
- smi: "O=C(O)c1cccc(Nc2nc(NCCOc3ccccc3)nc3[nH]cnc23)c1"
  value_reported: 7
- smi: "COC(=O)c1cccc(Nc2nc(NCCO)nc3[nH]cnc23)c1"
  value_reported: 32
